A collection of compounds and their measured pIC50
target: VIM-1 (Pseudomonas aeruginosa, UniProt A0A0F7KYQ8); assay: Inhibitory activity on MBL, fluorescent substrate FC-5; format: biochemical; settings: read-out: Inhibitory activity on MBL VIM-1 (IC50 class)
pIC50: −log10 of the molar value.

N#CCCCc1cn(Cc2ccc3c(c2C(=O)O)OB(O)CC3)nn1 | 4.00 to 6.00
O=C(O)c1c(Cn2cc(-c3ccccc3)nn2)ccc2c1OB(O)CC2 | 4.00 to 6.00
NCCN1Cc2cn(Cc3ccc4c(c3C(=O)O)OB(O)CC4)nc2C1 | 6.00 to 8.00
O=C(O)c1c(Cn2cc(C3CNC3)nn2)ccc2c1OB(O)CC2 | 4.00 to 6.00
N#Cc1ccn(Cc2ccc3c(c2C(=O)O)OB(O)CC3)c1 | 6.00 to 8.00

Record Cc1nccn1Cc1ccc2c(c1C(=O)O)OB(O)CC2 : what is its pIC50 with VIM-1 (Pseudomonas aeruginosa, UniProt A0A0F7KYQ8)?
4.00 to 6.00

Give recorded pIC50 with VIM-1 (Pseudomonas aeruginosa, UniProt A0A0F7KYQ8) for the following compound: NCCCc1cn(Cc2ccc3c(c2C(=O)O)OB(O)CC3)nn1
4.00 to 6.00

----------
// IC50 lookup, one value per entry
target: OXA-48 (Klebsiella pneumoniae); assay: Inhibitory activity on SBL, fluorescent substrate FC-5; type: biochemical; settings: read-out: Inhibitory activity on SBL OXA-48 (IC50 class)

N=C(N)NCCCc1cn(Cc2ccc3c(c2C(=O)O)OB(O)CC3)nn1 [Compound 48] | 0.01 to 1 µM
O=C(O)c1c(Cn2cc([N+](=O)[O-])cn2)ccc2c1OB(O)CC2 [Compound 31] | < 0.01 µM
CC(N)c1cnn(Cc2ccc3c(c2C(=O)O)OB(O)CC3)c1 (stereo not drawn) [Compound 39] | 0.01 to 1 µM
NCCCc1cn(Cc2ccc3c(c2C(=O)O)OB(O)CC3)nn1 [Compound 9] | < 0.01 µM
N[C@H]1CC(=O)N(Cc2ccc3c(c2C(=O)O)OB(O)CC3)C1 [Compound 45] | 0.01 to 1 µM
N#Cc1ccn(Cc2ccc3c(c2C(=O)O)OB(O)CC3)n1 [Compound 18] | < 0.01 µM

Can you look up IC50 on OXA-48 (Klebsiella pneumoniae) for NC1(c2cnn(Cc3ccc4c(c3C(=O)O)OB(O)CC4)c2)CC1 [Compound 40] ?
0.01 to 1 µM

Under OXA-48 (Klebsiella pneumoniae): IC50 value of NCCN1Cc2cn(Cc3ccc4c(c3C(=O)O)OB(O)CC4)nc2C1 [Compound 70] ?
0.01 to 1 µM

Value wanted: IC50 (OXA-48 (Klebsiella pneumoniae)) of entry O=C(O)c1c(Cn2cc(-c3ccccc3)nn2)ccc2c1OB(O)CC2 [Compound 12]
< 0.01 µM

----------
target: KPC-2 (Klebsiella pneumoniae); assay: Inhibitory activity on SBL, fluorescent substrate FC-5; type: biochemical
Sequence (Q9F663 25-293 limits assumed): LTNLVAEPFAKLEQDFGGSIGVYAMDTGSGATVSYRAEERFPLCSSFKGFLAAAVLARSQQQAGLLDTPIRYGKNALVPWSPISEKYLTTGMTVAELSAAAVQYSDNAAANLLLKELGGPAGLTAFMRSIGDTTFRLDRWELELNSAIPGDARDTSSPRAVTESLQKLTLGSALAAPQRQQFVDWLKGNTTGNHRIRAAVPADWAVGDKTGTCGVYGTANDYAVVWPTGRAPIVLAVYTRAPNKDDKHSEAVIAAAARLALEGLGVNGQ
recorded.endpoint: IC50

May I ask what IC50 has been recorded for O=C(O)c1c(Cn2nccn2)ccc2c1OB(O)C1CC21 (stereo not shown) ?
< 10 nM

----------
molecular target: IMP-1 (Serratia marcescens, UniProt P52699); test: Inhibitory activity on MBL, fluorescent substrate FC-5; type: biochemical; conditions: read-out: Inhibitory activity on MBL IMP-1 (IC50 class)
Sequence (P52699 19-246 limits assumed): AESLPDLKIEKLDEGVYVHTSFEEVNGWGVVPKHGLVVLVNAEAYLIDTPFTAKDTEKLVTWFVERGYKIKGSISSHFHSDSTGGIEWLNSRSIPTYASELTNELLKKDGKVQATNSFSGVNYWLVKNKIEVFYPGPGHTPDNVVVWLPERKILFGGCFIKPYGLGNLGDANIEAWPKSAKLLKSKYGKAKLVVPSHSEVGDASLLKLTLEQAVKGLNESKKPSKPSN
pIC50: −log10 of the molar value.
recorded.endpoint: pIC50

Give the measured pIC50 of Nc1ccc(-c2cn(Cc3ccc4c(c3C(=O)O)OB(O)CC4)nn2)cn1 .
6.00 to 8.00

Given the compound C[C@H]1Cc2ccc(Cn3ccnn3)c(C(=O)O)c2OB1O , what is its reported pIC50?
6.00 to 8.00

Which pIC50 reading was recorded for the compound CCCc1cn(Cc2ccc3c(c2C(=O)O)OB(O)CC3)nn1 ?
6.00 to 8.00

// lookup pIC50 for NCCNc1cnn(Cc2ccc3c(c2C(=O)O)OB(O)CC3)c1
4.00 to 6.00

Param item = Cc1nccn1Cc1ccc2c(c1C(=O)O)OB(O)CC2 ; retrieve measured pIC50.
4.00 to 6.00

Which pIC50 reading was recorded for the compound NCCN[C@H]1CC[C@H](CC(=O)N[C@H]2Cc3cccc(C(=O)O)c3OB2O)CC1 [Taniborbactam, reference compound] ?
4.00 to 6.00

Quick check: pIC50 of O=C(O)c1c(Cn2cc3c(n2)CNC3)ccc2c1OB(O)C=C2 ?
4.00 to 6.00

Given the compound NCCNCc1cnn(Cc2ccc3c(c2C(=O)O)OB(O)CC3)c1 , what is its reported pIC50?
4.00 to 6.00

pIC50 for O=C(O)c1c(Cn2cc(CN3CCCC3)nn2)ccc2c1OB(O)CC2 ?
4.00 to 6.00

----------
IC50 listing for selected compounds.
target: VIM-2 (Escherichia coli); test: Inhibitory activity on MBL, fluorescent substrate FC-5; format: biochemical; conditions: read-out: Inhibitory activity on MBL VIM-2 (IC50 class)

N#Cc1ccn(Cc2ccc3c(c2C(=O)O)OB(O)CC3)c1 | 10 to 1000 nM
NS(=O)(=O)NCc1cnn(Cc2ccc3c(c2C(=O)O)OB(O)CC3)c1 | 10 to 1000 nM
Nc1ncc(-c2cn(Cc3ccc4c(c3C(=O)O)OB(O)CC4)nn2)cn1 | 10 to 1000 nM
NC(=O)c1ccn(Cc2ccc3c(c2C(=O)O)OB(O)CC3)n1 | 10 to 1000 nM
O=C(O)c1c(Cn2ccnn2)ccc2c1OB(O)C1CC21 (stereo not drawn) | 10 to 1000 nM

Fill in the blank: the reported IC50 of NC1CN(C(=O)c2cnn(Cc3ccc4c(c3C(=O)O)OB(O)CC4)c2)C1 is ____.
10 to 1000 nM

Value lookup for IC50; key = NS(=O)(=O)N1Cc2cn(Cc3ccc4c(c3C(=O)O)OB(O)CC4)nc2C1
10 to 1000 nM

Endpoint output: IC50 of Nc1cnn(Cc2ccc3c(c2C(=O)O)OB(O)CC3)c1 . Value?
10 to 1000 nM

Item NCc1ccn(Cc2ccc3c(c2C(=O)O)OB(O)CC3)n1 has what recorded IC50?
10 to 1000 nM

----------
target: OXA-48 (Klebsiella pneumoniae, UniProt Q6XEC0); experiment: Inhibitory activity on SBL, fluorescent substrate FC-5; format: biochemical; conditions: read-out: Inhibitory activity on SBL OXA-48 (IC50 class)
Sequence (Q6XEC0 23-265 limits assumed): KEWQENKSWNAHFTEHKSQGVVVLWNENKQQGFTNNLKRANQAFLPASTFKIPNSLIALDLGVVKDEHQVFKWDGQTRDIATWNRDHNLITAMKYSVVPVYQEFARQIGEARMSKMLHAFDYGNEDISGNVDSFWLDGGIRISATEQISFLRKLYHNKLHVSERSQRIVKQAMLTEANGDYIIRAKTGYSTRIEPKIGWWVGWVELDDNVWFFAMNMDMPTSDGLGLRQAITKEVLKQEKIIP
pIC50: −log10 of the molar value.
recorded.endpoint: pIC50

// worked examples, pIC50 included
NC(=O)N1Cc2cn(Cc3ccc4c(c3C(=O)O)OB(O)CC4)nc2C1 | 6.00 to 8.00
NS(=O)(=O)NCCc1cn(Cc2ccc3c(c2C(=O)O)OB(O)CC3)nn1 | > 8.00
N#CCCCc1cn(Cc2ccc3c(c2C(=O)O)OB(O)CC3)nn1 | 6.00 to 8.00
NCCNc1cnn(Cc2ccc3c(c2C(=O)O)OB(O)CC3)c1 | > 8.00
O=C(O)c1c(Cn2nccn2)ccc2c1OB(O)CC2 | > 8.00
NCc1cnn(Cc2ccc3c(c2C(=O)O)OB(O)CC3)c1 | > 8.00
NCCNCc1cnn(Cc2ccc3c(c2C(=O)O)OB(O)CC3)c1 | > 8.00
O=C(O)c1c(Cn2cc3c(n2)CNC3)ccc2c1OB(O)C=C2 | 4.00 to 6.00

Field request: pIC50 | item: NCc1ccc(-c2cn(Cc3ccc4c(c3C(=O)O)OB(O)CC4)nn2)cc1
> 8.00

May I ask what pIC50 has been recorded for NCc1ccn(Cc2ccc3c(c2C(=O)O)OB(O)CC3)n1 ?
6.00 to 8.00

----------
biological target: AmpC (UniProt P24735); experiment: Inhibitory activity on SBL, fluorescent substrate FC-5; conditions: read-out: Inhibitory activity on SBL AmpC (IC50 class)
recorded.endpoint: IC50

O=C(O)c1c(Cn2ccc3cncnc32)ccc2c1OB(O)CC2 [Compound 55] | 1 to 100 µM
CN1Cc2cn(Cc3ccc4c(c3C(=O)O)OB(O)CC4)nc2C1 [Compound 74] | 0.01 to 1 µM
O=C(O)c1c(CNc2nncs2)ccc2c1OB(O)CC2 [Comparative example 1 compound 64, reference compound] | 1 to 100 µM
NCCc1ccc(-c2cn(Cc3ccc4c(c3C(=O)O)OB(O)CC4)nn2)cc1 [Compound 65] | 1 to 100 µM
N=C(N)N1CC(c2cn(Cc3ccc4c(c3C(=O)O)OB(O)CC4)nn2)C1 [Compound 49] | 1 to 100 µM

Dear colleague, I am looking for the recorded IC50 of the following molecule: N=C(N)NCCc1cn(Cc2ccc3c(c2C(=O)O)OB(O)CC3)nn1 [Compound 10]
> 100 µM

Need IC50 of NC(=O)N1Cc2cn(Cc3ccc4c(c3C(=O)O)OB(O)CC4)nc2C1 [Compound 73] , thanks.
0.01 to 1 µM

// IC50 lookup, key: N=C(N)N1Cc2cnn(Cc3ccc4c(c3C(=O)O)OB(O)CC4)c2C1 [Compound 67]
> 100 µM
